Procedure text: xn = mol fraction of the nth substance listed
Stated conditions: 323.15 K; 101.3 kPa; Liquid; x2 = 0.5
Exercise: state measured viscosity for each of the molecules provided.
Numbers only, in mPa·s.

>>> df
                                   molecule  unit_abbrev  experimental_result
0  CCCC(C)CO (centres undefined) [2-methyl-1-pentanol] + CCCCN        mPa·s                 0.91

Hi there! I need viscosity for each item below, if you can.
1. CC(C)CC(C)O (centres undefined) [4-methyl-2-pentanol] + CCCCN
2. CCCCC(C)O (centres undefined) [2-hexanol] + CCCCN

Result ::
1: 0.75; 2: 0.79

Query :: Requested read-out: viscosity. Entry: CCCC(O)CC (centres undefined) [3-hexanol] + CCCCN
Result :: 0.76

====

Procedure text: xn = mol fraction of the nth substance listed
Stated conditions: 303.15 K; 101.3 kPa; Liquid; x2 = 0.9
Property measured: viscosity (mPa·s)
Numbers only, in mPa·s.

Please report viscosity for every entry that follows.
1. CCCC(C)(C)O [2-methyl-2-pentanol] + CCCCN
2. CCCC(O)CC (centres undefined) [3-hexanol] + CCCCN
3. CC(C)CC(C)O (centres undefined) [4-methyl-2-pentanol] + CCCCN
4. CCCCC(C)O (centres undefined) [2-hexanol] + CCCCN

Result ::
0.54
0.54
0.56
0.53

====

Procedure text: xn = mol fraction of the nth substance listed
Stated conditions: 323.15 K; 101.3 kPa; Liquid; x2 = 0.1
Property measured: mass density (kg/m3)
Answers are plain numbers, in kg/m3.

In [3]: df
Out[3]:
                                   molecule  unit_abbrev  experimental_result
0  CCCC(O)CC (stereo not given) [3-hexanol] + CCCCN        kg/m3                789.8
1  CCCC(C)CO (stereo not given) [2-methyl-1-pentanol] + CCCCN        kg/m3                795.3
2  CC(C)CC(C)O (stereo not given) [4-methyl-2-pentanol] + CCCCN        kg/m3                778.6
3  CCCC(C)(C)O [2-methyl-2-pentanol] + CCCCN        kg/m3                789.2

API: the following record is the query input.
Query :: Record request: mass density value, item CCCCC(C)O (stereo not given) [2-hexanol] + CCCCN
Result :: 786

====

Procedure text: xn = mol fraction of the nth substance listed
Stated conditions: 313.15 K; 101.3 kPa; Liquid; x2 = 0.3
For each of the compounds below, state its viscosity.
Numbers only, in mPa·s.

Reference set (3 entries):
                                   compound  property_measured  experimental_result
0  CC(C)CC(C)O (centres undefined) [4-methyl-2-pentanol] + CCCCN          viscosity                 1.31
1  CCCC(O)CC (centres undefined) [3-hexanol] + CCCCN          viscosity                 1.39
2  CCCCC(C)O (centres undefined) [2-hexanol] + CCCCN          viscosity                  1.4

Next:
Query :: Field request: viscosity | item: CCCC(C)(C)O [2-methyl-2-pentanol] + CCCCN
Result :: 1.41
